Item-by-item account of normalized RNA/DNA level without ligand (log10)
B1: library; a variant is named by its letters at N, in order (parent)
chain: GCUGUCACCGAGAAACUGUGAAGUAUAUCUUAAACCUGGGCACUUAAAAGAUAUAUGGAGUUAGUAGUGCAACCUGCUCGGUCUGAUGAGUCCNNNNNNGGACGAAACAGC

Variants of: B1
Assay: normalized RNA/DNA level without ligand (relative to sTRSVctl = 100) (log10 (% of sTRSVctl)); HEK293T; ligand: cyclic di-GMP (c-di-GMP-II aptamer); higher = less ribozyme self-cleavage, higher mRNA level
Conditions: reporter: mCherry (pCS4076), ligand present: no
Measure Name: normalized RNA/DNA level without ligand (log10)

| Variant Id | Reported Measurement |
| --- | --- |
| GUGCCG | 1.83 |
| AGUAUC | 1.68 |
| GCGGAG | 1.53 |
| GCCCAA | 1.62 |
| GAGAGA | 1.61 |
| GUUGUC | 1.53 |
| GCUCCA | 1.71 |
| AUAAAA | 1.53 |
| GGUAAA | 1.44 |
| UGUAGC | 1.73 |
| CAAUUC | 1.66 |
| AAGGCU | 1.71 |
| UCCCGA | 1.77 |
| UUGCCA | 1.8 |
| UGUUGG | 1.71 |
| GCGACA | 1.52 |
| UUGAGU | 1.72 |
| GCCAUC | 1.56 |
| AGCACU | 1.7 |
| UUAUGG | 1.74 |
| UCGAUC | 1.62 |
| UCAAUC | 1.63 |
| CUGUGA | 1.54 |
| ACAUUA | 1.41 |
| AGCGCC | 1.77 |
| CUCGGC | 1.8 |
| AGGUUA | 1.54 |
| CUCAAU | 1.55 |
| CCACGC | 1.66 |
| AGUUUC | 1.75 |
| AUACUA | 1.6 |
| UUUUCC | 1.84 |
| GACUGA | 1.57 |
| CUUCAG | 1.73 |
| AUUCUU | 1.72 |
| CGAGGC | 1.74 |
| CCGGUC | 1.62 |
| AGACAA | 1.47 |
| GCAUCC | 1.65 |
| UGCAAG | 1.78 |
| UUUGGC | 1.79 |
| GACAAG | 1.55 |
| UCCCCC | 1.83 |
| CGUCAA | 1.31 |
| CCGGGA | 1.51 |
| CGGCGU | 1.73 |
| CCAUCU | 1.62 |
| GCGAGA | 1.41 |
| GGUGGA | 1.55 |
| AGCAUU | 1.66 |
| UUAGAU | 1.7 |
| AUAUCC | 1.73 |
| GCUGAU | 1.55 |
| CUGUCA | 1.52 |
| UAAUUU | 1.69 |
| GGGCCC | 1.92 |
| ACUCUU | 1.64 |
| CGGGCU | 1.84 |
| CUCGUU | 1.76 |
| GCAACA | 1.55 |
| ACAGCA | 1.66 |
| GGGAUC | 1.66 |
| AUUUAU | 1.74 |
| AUACAA | 1.54 |
| CAUUUU | 1.53 |
| CUUUGA | 1.66 |
| CCUGGG | 1.72 |
| GUCUUG | 1.61 |
| ACCCCC | 1.82 |
| GCGUUU | 1.6 |
| GUCAUA | 1.57 |
| UCGUGC | 1.67 |
| AUUUGA | 1.51 |
| AGGAGG | 1.65 |
| AGAAUA | 1.43 |
| ACAACC | 1.67 |
| GCGUCU | 1.67 |
| GAGUAA | 1.71 |
| UUUACU | 1.75 |
| UUAAGA | 1.61 |
| UCGUUC | 1.74 |
| GAGUAC | 1.8 |
| CUCUUU | 1.6 |
| CGUCUC | 1.77 |
| UGAGUG | 1.72 |
| UGAUCC | 1.89 |
| CAACUU | 1.49 |
| GCGCCG | 1.78 |
| GAAUGA | 1.48 |
| AAAGAA | 1.34 |
| AGAAAU | 1.71 |
